Target: Tyrosine-protein kinase JAK2 (Homo sapiens, UniProt O60674)
Sequence (O60674 whole entry): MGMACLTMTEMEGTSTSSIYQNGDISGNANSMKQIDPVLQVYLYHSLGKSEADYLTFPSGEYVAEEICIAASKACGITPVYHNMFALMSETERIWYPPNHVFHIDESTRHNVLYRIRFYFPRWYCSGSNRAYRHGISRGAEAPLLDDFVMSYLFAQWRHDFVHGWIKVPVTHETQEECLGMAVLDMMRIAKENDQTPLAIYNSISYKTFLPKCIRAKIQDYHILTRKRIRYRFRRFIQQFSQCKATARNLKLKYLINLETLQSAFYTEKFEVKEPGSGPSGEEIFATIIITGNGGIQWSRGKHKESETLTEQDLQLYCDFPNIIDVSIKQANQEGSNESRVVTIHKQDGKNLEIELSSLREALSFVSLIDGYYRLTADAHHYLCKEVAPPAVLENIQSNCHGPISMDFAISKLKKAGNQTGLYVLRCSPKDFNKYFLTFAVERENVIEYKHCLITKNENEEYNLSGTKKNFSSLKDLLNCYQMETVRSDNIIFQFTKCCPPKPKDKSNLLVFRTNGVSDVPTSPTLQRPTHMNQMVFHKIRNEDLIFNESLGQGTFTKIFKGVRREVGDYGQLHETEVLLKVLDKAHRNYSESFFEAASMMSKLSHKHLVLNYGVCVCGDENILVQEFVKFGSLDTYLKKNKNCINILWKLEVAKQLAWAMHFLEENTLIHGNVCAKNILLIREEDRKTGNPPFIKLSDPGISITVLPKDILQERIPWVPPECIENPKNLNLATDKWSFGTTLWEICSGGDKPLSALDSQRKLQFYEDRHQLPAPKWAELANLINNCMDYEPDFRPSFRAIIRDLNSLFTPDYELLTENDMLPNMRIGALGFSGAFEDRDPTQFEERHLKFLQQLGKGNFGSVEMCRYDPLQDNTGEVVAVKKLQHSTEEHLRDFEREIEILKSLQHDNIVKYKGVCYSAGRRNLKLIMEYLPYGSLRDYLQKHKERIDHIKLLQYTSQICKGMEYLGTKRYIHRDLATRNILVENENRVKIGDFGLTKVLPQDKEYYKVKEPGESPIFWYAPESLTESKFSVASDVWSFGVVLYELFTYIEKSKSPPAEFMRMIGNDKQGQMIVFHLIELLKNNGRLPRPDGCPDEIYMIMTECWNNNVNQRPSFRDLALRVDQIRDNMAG
Test: Inhibition of JAK2 (unknown origin)
measured-metric: IC50 (µM)
Give the number; µM is assumed, so skip it.

>  <compound-structure-string>
Cc1cc(Nc2cc(CN3CCOCC3)c3nc(C)c(Cc4ccc(Cl)cc4F)n3n2)n[nH]1

>  <system>
Tyrosine-protein kinase JAK2 (Homo sapiens, UniProt O60674)

>  <measured-metric>
IC50

>  <val>
0.068

$$$$

Attention now shifts to the item below.
[in] Lab request: please report IC50 under test system Tyrosine-protein kinase JAK2 (Homo sapiens, UniProt O60674) for "COc1nn(C)cc1Nc1nccc(-c2c[nH]c3c(NC(=O)[C@@H](C)N4CCN(C)CC4)cccc23)n1"
[out] 14.7
